Hey, just so you know, these numbers are from patent US5288730A.

biological target: human neurokinin-1-receptor (NK1R) (Homo sapiens)
Sequence (P25103 whole entry): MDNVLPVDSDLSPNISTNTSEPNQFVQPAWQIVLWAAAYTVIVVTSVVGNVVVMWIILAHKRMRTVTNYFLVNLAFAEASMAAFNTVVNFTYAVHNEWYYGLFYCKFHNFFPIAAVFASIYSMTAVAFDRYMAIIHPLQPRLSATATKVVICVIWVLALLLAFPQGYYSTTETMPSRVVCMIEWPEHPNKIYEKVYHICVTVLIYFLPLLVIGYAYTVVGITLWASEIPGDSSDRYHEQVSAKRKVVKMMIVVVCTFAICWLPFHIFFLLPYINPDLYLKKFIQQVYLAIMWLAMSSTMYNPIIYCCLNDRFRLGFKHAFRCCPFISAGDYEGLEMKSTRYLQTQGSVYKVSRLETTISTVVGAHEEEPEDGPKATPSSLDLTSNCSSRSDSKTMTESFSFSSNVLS
Structures can show the parent of a compound that is named as a salt.
MEASURE: pIC50
Give bare numbers, as −log10 of the molar value.

These solved cases illustrate the format of a correct answer.
# MOLECULE, SUBJECT OF TEST, pIC50
records = [
    ("FC(F)(F)c1cc(COC2C3CCN(CC3)C2C(c2ccccc2)C2CCCCC2)cc(C(F)(F)F)c1 (stereo not drawn) [Example 5, oxalate hemihydrate]", "human neurokinin-1-receptor (NK1R) (Homo sapiens)", 8.52),
    ("COc1cccc(C(Cc2ccccc2)C2C(OCc3cc(C(F)(F)F)cc(C(F)(F)F)c3)C3CCN2CC3)c1 (single isomer, unassigned) [4: ISOMER B]", "human neurokinin-1-receptor (NK1R) (Homo sapiens)", 8.74),
]

Turning now to a further molecule:
Qu. // query pIC50 value for entry Cc1cc(C)cc(COC2C3CCN(CC3)C2C(Cc2ccccc2)c2ccccc2)c1 (single isomer, unassigned) [1: ISOMER B]
Ans. 8.74
